These entries and their values trace back to patent US10231954B2.

# system.tested: UniProtKB Q15418
# Sequence (Q15418 whole entry, species assumed): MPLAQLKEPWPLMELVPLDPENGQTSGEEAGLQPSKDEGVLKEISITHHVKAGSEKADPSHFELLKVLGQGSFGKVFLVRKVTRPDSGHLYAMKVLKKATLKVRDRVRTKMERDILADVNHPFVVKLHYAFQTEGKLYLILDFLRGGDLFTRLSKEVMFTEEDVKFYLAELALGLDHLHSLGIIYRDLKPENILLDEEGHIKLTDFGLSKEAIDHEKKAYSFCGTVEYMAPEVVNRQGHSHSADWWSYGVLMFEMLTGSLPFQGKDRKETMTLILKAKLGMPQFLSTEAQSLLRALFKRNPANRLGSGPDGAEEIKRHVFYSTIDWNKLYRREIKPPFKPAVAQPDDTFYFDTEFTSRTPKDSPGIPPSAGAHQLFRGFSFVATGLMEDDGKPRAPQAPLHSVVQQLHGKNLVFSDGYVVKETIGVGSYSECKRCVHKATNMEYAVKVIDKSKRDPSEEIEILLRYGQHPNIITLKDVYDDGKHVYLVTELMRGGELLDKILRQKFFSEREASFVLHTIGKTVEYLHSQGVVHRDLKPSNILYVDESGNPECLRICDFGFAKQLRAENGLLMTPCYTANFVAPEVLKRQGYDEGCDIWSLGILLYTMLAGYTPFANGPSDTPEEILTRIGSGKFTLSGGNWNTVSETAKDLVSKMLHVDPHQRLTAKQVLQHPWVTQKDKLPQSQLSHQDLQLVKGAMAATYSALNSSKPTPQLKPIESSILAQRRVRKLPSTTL
# protocol.summary: Kinase profiling RSK1
# Assay type: biochemical
# settings: 100 micromolar inhibitor concentration; 100 is no change
Each entry below carries its reported residual kinase activity, RSK1.
measured.quantity: residual kinase activity, RSK1

{"test.smiles": "O=C(Nc1nc2ccc(O)cc2s1)c1cccnc1", "system.tested": "UniProtKB Q15418", "measured.number": 41}
{"test.smiles": "CC(=O)Nc1ccccc1C(=O)Nc1nc2ccc(O)cc2s1", "system.tested": "UniProtKB Q15418", "measured.number": 30}
{"test.smiles": "COC(=O)c1cccc(C(=O)Nc2nc3cc(OC)ccc3s2)c1", "system.tested": "UniProtKB Q15418", "measured.number": 70}
{"test.smiles": "O=C(Nc1nc2cc(O)ccc2s1)c1ccccc1", "system.tested": "UniProtKB Q15418", "measured.number": 41}
{"test.smiles": "CC(=O)Nc1nc2ccccc2s1", "system.tested": "UniProtKB Q15418", "measured.number": 86}
{"test.smiles": "COc1ccc2sc(NC(=O)c3ccc(NC(C)=O)cc3)nc2c1", "system.tested": "UniProtKB Q15418", "measured.number": 85}
{"test.smiles": "O=C(Nc1nc2ccc(C(F)(F)F)cc2s1)c1ccccc1", "system.tested": "UniProtKB Q15418", "measured.number": 92}
{"test.smiles": "N#Cc1ccc2nc(NC(=O)c3ccccc3)sc2c1", "system.tested": "UniProtKB Q15418", "measured.number": 96}
{"test.smiles": "O=C(Nc1nc2cc(O)ccc2s1)c1cccnc1", "system.tested": "UniProtKB Q15418", "measured.number": 73}
{"test.smiles": "CC(=O)Nc1nc2cc(C)ccc2s1", "system.tested": "UniProtKB Q15418", "measured.number": 78}
{"test.smiles": "CC(=O)Nc1ccc(C(=O)Nc2nc3cc(O)ccc3s2)cc1", "system.tested": "UniProtKB Q15418", "measured.number": 29}
{"test.smiles": "CC(=O)Nc1cccc(C(=O)Nc2nc3ccc(O)cc3s2)c1", "system.tested": "UniProtKB Q15418", "measured.number": 35}

----------
Listed here are molecules together with their documented residual kinase activity, TTK.
# system.tested: TTK (Homo sapiens, UniProt P33981)
# Sequence (P33981 whole entry, species assumed): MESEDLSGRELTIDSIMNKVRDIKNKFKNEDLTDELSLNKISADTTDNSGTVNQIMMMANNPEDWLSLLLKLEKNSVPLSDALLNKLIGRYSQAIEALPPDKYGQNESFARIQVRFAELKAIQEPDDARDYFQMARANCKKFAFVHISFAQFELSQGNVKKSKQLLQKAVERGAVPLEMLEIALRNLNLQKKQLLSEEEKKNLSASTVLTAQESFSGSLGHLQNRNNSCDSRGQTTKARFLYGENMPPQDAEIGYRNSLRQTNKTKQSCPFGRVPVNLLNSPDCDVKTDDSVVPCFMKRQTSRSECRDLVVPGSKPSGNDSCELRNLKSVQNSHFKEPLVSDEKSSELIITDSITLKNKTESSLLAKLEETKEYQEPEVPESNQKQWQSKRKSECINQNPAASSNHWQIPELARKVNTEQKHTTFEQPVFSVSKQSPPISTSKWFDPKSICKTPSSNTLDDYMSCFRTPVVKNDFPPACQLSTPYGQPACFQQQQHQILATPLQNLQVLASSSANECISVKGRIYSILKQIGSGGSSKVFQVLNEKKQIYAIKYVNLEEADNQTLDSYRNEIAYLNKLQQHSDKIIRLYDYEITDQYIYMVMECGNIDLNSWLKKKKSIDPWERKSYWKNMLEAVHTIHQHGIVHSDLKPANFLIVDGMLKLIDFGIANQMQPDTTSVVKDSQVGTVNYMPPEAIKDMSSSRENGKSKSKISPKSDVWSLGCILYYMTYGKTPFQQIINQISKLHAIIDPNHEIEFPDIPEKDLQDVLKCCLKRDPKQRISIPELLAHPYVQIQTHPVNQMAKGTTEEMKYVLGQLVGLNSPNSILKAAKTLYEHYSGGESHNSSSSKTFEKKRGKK
# protocol.summary: Kinase profiling TTK
# Format: biochemical
# settings: 100 micromolar inhibitor concentration; 100 is no change

{"test.smiles": "N#Cc1ccc2nc(NC(=O)c3ccccc3)sc2c1", "residual kinase activity, TTK": 42}
{"test.smiles": "CC(=O)Nc1nc2ccc(F)cc2s1", "residual kinase activity, TTK": 37}
{"test.smiles": "O=C(Nc1nc2ccc(O)cc2s1)c1ccccc1", "residual kinase activity, TTK": 19}
{"test.smiles": "O=C(Nc1nc2cc(O)ccc2s1)c1ccccc1", "residual kinase activity, TTK": 30}
{"test.smiles": "O=C(Nc1nc2ccc(F)cc2s1)c1ccccc1", "residual kinase activity, TTK": 47}
{"test.smiles": "O=C(Nc1nc2cc(O)ccc2s1)c1ccccn1", "residual kinase activity, TTK": 53}
{"test.smiles": "O=C(Nc1nc2ccc(O)cc2s1)c1cccnc1", "residual kinase activity, TTK": 22}
{"test.smiles": "COc1ccc2nc(NC(=O)c3ccccc3)sc2c1", "residual kinase activity, TTK": 18}
{"test.smiles": "COc1ccc2sc(NC(=O)c3ccccc3)nc2c1", "residual kinase activity, TTK": 71}
{"test.smiles": "O=C(Nc1nc2ccc(O)cc2s1)c1ccncc1", "residual kinase activity, TTK": 32}
{"test.smiles": "CC(=O)Nc1nc2cc(C)ccc2s1", "residual kinase activity, TTK": 49}
{"test.smiles": "O=C(Nc1nc2cc(O)ccc2s1)c1cccnc1", "residual kinase activity, TTK": 45}
{"test.smiles": "O=C(Nc1nc2cc(O)ccc2s1)c1ccncc1", "residual kinase activity, TTK": 74}
{"test.smiles": "COC(=O)c1cccc(C(=O)Nc2nc3cc(OC)ccc3s2)c1", "residual kinase activity, TTK": 94}

----------
# system.tested: MST2 (Homo sapiens, UniProt Q13188)
# Sequence (Q13188 whole entry, species assumed): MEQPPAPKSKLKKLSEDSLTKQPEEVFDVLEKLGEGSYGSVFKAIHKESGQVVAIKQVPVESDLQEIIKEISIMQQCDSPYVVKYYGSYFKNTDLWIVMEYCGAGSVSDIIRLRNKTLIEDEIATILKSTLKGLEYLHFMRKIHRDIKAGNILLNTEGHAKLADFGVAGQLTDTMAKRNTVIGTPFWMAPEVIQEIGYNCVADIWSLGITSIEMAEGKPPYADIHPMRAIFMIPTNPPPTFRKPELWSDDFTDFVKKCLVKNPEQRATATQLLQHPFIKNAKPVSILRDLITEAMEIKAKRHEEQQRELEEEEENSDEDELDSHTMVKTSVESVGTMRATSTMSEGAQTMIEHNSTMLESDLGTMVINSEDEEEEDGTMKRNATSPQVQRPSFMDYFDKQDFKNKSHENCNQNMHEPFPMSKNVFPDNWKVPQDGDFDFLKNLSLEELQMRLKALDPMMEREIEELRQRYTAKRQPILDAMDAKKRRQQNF
# protocol.summary: Kinase profiling MST2
# Assay type: biochemical
# settings: 100 micromolar inhibitor concentration; 100 is no change; read-out: residual kinase activity, MST2
Listed next: entries and their corresponding remaining activity at 100 µM.
measured.quantity: remaining activity at 100 µM (%)

{"test.smiles": "CC(=O)Nc1nc2ccc([N+](=O)[O-])cc2s1", "system.tested": "MST2 (Homo sapiens, UniProt Q13188)", "measurement.units": "%", "measured.number": 97}
{"test.smiles": "CC(=O)Nc1nc2ccc(O)cc2s1", "system.tested": "MST2 (Homo sapiens, UniProt Q13188)", "measurement.units": "%", "measured.number": 56}
{"test.smiles": "CC(=O)Nc1nc2cc(C(F)(F)F)ccc2s1", "system.tested": "MST2 (Homo sapiens, UniProt Q13188)", "measurement.units": "%", "measured.number": 80}
{"test.smiles": "CC(=O)Nc1nc2ccc(C(F)(F)F)cc2s1", "system.tested": "MST2 (Homo sapiens, UniProt Q13188)", "measurement.units": "%", "measured.number": 99}
{"test.smiles": "CC(=O)Nc1nc2cc(F)ccc2s1", "system.tested": "MST2 (Homo sapiens, UniProt Q13188)", "measurement.units": "%", "measured.number": 80}
{"test.smiles": "COc1ccc2sc(NC(C)=O)nc2c1", "system.tested": "MST2 (Homo sapiens, UniProt Q13188)", "measurement.units": "%", "measured.number": 91}
{"test.smiles": "CC(=O)Nc1nc2ccc(C#N)cc2s1", "system.tested": "MST2 (Homo sapiens, UniProt Q13188)", "measurement.units": "%", "measured.number": 56}

----------
# Test system: VEG-FR
# protocol.summary: Kinase profiling VEG-FR
# Format: biochemical
# settings: 100 micromolar inhibitor concentration; 100 is no change
Quick list: residual kinase activity, VEG-FR per entry.

{"test.smiles": "COc1ccc2sc(NC(C)=O)nc2c1", "residual kinase activity, VEG-FR": 71}
{"test.smiles": "O=C(Nc1nc2cc(O)ccc2s1)c1ccccn1", "residual kinase activity, VEG-FR": 24}
{"test.smiles": "N#Cc1ccc2nc(NC(=O)c3ccccc3)sc2c1", "residual kinase activity, VEG-FR": 36}
{"test.smiles": "O=C(Nc1nc2ccc(O)cc2s1)c1ccncc1", "residual kinase activity, VEG-FR": 20}
{"test.smiles": "CC(=O)Nc1nc2cc(F)ccc2s1", "residual kinase activity, VEG-FR": 48}
{"test.smiles": "O=C(Nc1nc2ccc(F)cc2s1)c1ccccc1", "residual kinase activity, VEG-FR": 53}
{"test.smiles": "CC(=O)Nc1nc2ccc([N+](=O)[O-])cc2s1", "residual kinase activity, VEG-FR": 5}
{"test.smiles": "CC(=O)Nc1nc2ccc(C#N)cc2s1", "residual kinase activity, VEG-FR": 11}
{"test.smiles": "COC(=O)c1cccc(C(=O)Nc2nc3ccc(C(F)(F)F)cc3s2)c1", "residual kinase activity, VEG-FR": 29}
{"test.smiles": "CC(=O)Nc1nc2ccc(O)cc2s1", "residual kinase activity, VEG-FR": 9}

----------
# system.tested: MLK1 (Homo sapiens, UniProt P80192)
# Sequence (P80192 whole entry, species assumed): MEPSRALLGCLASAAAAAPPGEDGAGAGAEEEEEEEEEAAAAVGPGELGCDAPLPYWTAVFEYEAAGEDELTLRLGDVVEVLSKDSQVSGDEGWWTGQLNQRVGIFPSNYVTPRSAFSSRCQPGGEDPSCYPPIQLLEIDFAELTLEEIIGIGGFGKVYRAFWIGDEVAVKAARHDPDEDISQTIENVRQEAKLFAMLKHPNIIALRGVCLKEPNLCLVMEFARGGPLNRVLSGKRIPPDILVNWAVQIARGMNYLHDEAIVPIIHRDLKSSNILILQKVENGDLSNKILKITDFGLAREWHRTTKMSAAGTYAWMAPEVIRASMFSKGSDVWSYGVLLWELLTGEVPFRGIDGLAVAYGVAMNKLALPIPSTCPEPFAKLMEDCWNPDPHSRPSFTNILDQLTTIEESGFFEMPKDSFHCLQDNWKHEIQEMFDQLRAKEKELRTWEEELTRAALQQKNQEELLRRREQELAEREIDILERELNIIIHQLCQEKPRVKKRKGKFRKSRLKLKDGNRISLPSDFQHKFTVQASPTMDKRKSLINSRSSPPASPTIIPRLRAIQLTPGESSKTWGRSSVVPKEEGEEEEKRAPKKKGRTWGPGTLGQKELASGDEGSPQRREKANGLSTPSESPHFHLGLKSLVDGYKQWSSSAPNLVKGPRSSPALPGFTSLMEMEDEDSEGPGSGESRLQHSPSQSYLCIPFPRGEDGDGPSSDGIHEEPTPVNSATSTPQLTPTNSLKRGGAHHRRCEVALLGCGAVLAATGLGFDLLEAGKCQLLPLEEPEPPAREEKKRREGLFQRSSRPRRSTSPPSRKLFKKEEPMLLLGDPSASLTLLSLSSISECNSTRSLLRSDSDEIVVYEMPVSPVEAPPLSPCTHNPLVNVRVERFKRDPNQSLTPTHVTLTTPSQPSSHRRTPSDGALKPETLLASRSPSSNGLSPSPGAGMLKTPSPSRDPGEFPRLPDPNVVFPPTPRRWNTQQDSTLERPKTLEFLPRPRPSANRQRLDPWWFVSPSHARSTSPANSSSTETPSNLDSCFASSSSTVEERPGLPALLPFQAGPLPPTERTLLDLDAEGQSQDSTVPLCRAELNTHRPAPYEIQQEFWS
# protocol.summary: Kinase profiling MLK1
# Assay type: biochemical
# settings: 100 micromolar inhibitor concentration; 100 is no change; read-out: residual kinase activity, MLK1
Recorded remaining activity at 100 µM, one value per entry.

{"compound": "COc1ccc2sc(NC(C)=O)nc2c1 [Compound 03-21]", "measurement.units": "%", "remaining activity at 100 µM": 84}
{"compound": "CC(=O)Nc1nc2cc(C(F)(F)F)ccc2s1 [Compound 03-73]", "measurement.units": "%", "remaining activity at 100 µM": 75}
{"compound": "CC(=O)Nc1nc2ccc(O)cc2s1 [Compound 01-71]", "measurement.units": "%", "remaining activity at 100 µM": 11}
{"compound": "CC(=O)Nc1nc2ccc(C(F)(F)F)cc2s1 [Compound 01-90]", "measurement.units": "%", "remaining activity at 100 µM": 39}
{"compound": "CC(=O)Nc1nc2cc(F)ccc2s1 [Compound 03-77]", "measurement.units": "%", "remaining activity at 100 µM": 58}
{"compound": "CC(=O)Nc1nc2ccc(C#N)cc2s1 [Compound 01-94]", "measurement.units": "%", "remaining activity at 100 µM": 34}

----------
The following compounds are shown together with reported residual kinase activity, PLK1 values.
# system.tested: PLK1 (Homo sapiens, UniProt P53350)
# Sequence (P53350 whole entry, species assumed): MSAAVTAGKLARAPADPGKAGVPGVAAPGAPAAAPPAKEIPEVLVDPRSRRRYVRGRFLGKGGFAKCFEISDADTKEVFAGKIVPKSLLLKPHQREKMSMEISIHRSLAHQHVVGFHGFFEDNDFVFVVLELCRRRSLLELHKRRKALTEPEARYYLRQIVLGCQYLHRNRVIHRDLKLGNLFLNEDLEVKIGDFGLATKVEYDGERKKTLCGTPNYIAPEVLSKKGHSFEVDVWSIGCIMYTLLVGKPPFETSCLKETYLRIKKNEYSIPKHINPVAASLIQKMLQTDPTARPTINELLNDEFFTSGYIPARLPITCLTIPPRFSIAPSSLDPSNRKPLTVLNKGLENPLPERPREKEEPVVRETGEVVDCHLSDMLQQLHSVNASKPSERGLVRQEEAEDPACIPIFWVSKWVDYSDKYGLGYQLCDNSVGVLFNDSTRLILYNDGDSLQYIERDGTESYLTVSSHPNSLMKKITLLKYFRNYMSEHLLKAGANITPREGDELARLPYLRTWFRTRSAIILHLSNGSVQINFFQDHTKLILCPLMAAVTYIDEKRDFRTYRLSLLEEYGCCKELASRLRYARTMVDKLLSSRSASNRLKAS
# protocol.summary: Kinase profiling PLK1
# Type: biochemical
# settings: 100 micromolar inhibitor concentration; 100 is no change

{"test.smiles": "COC(=O)c1cccc(C(=O)Nc2nc3cc(OC)ccc3s2)c1", "residual kinase activity, PLK1": 96}
{"test.smiles": "O=C(Nc1nc2ccc(O)cc2s1)c1ccccn1", "residual kinase activity, PLK1": 65}
{"test.smiles": "CC(=O)Nc1nc2cc(C)ccc2s1", "residual kinase activity, PLK1": 90}
{"test.smiles": "CC(=O)Nc1nc2ccccc2s1", "residual kinase activity, PLK1": 62}
{"test.smiles": "COc1ccc2sc(NC(=O)c3cccc(C(N)=O)c3)nc2c1", "residual kinase activity, PLK1": 105}
{"test.smiles": "O=C(Nc1nc2ccc(F)cc2s1)c1ccccc1", "residual kinase activity, PLK1": 92}
{"test.smiles": "O=C(Nc1nc2ccc(O)cc2s1)c1ccncc1", "residual kinase activity, PLK1": 74}
{"test.smiles": "N#Cc1ccc2nc(NC(=O)c3ccccc3)sc2c1", "residual kinase activity, PLK1": 103}
{"test.smiles": "O=C(Nc1nc2ccc(O)cc2s1)c1cccnc1", "residual kinase activity, PLK1": 63}
{"test.smiles": "COC(=O)c1cccc(C(=O)Nc2nc3ccc(F)cc3s2)c1", "residual kinase activity, PLK1": 108}
